Numbers sourced from PubChem BioAssay (NCI).

Measured TGI values are reported for all entries that follow.
- Test system: NCI-H23 lung
- method: NCI tumour cell line growth inhibition, 48 h

Example entries begin here.
COc1cccc(C(C#N)NNC(=O)c2c(Cl)c(Cl)c(Cl)c(Cl)c2-c2nc3ccc(C(=O)c4ccccc4)cc3[nH]2)c1O (stereo not given) ... > 100 µM
COC1=C(OC)C(=O)C(C/C=C(\C)CC/C=C(\C)CC/C=C(\C)CC/C=C(\C)CC/C=C(\C)CC/C=C(\C)CC/C=C(\C)CC/C=C(\C)CC/C=C(\C)CCC=C(C)C)=C(C)C1=O ... > 100 µM
O=c1[nH]cc(N=Cc2cc(Cl)ccc2O)c(=O)[nH]1 ... > 100 µM
Cc1cc2c(=O)c3ccc(Cl)cc3[nH]c2c(C(N)=O)c1C ... > 100 µM
CC(C)N(C(=O)C12C3C4C5(C(=O)O)C(C1C35I)C42C(=O)O)C(C)C (stereo not given) ... > 100 µM

Record lookup: for NCI-H23 lung, what TGI belongs to COc1c(C)c(C/C=C(\C)CCCC(C)CCCC(C)CCCC(C)C)c(OC)c2ccccc12 (stereo not given) ?
> 100 µM

Notebook entry, NCI-H23 lung assay: TGI of `CN1CCN(C(=O)c2ccc(NC(=O)Nc3ccc(-c4nc(N5CCOCC5)c5cccn5n4)cc3)cc2)CC1` = ?
19 µM

What TGI appears in the records for this molecule with NCI-H23 lung? `O=c1cc(-c2ccccc2)[nH]c2c1CCCC2`
> 100 µM

Form field: TGI recorded for `c1ccc2c(Nc3ncco3)cccc2c1` with NCI-H23 lung (enter value)
> 10 µM

Tell me reported TGI for NC1=NC(SCc2ccccc2CCl)c2ncn(Cc3ccccc3CCl)c2N1 (stereo not given) , tested with NCI-H23 lung.
3.45 µM

// map `COC(=O)CCC(=O)NC1=C(Nc2ccccc2)C(=O)c2ccccc2C1=O` to recorded TGI (system: NCI-H23 lung)
12.9 µM

Please tell me: TGI of `COc1ccc(/C=c2\[nH]c3nc(=O)c(N4CCCCC4)c(N)n3c2=O)cc1` , system NCI-H23 lung?
> 100 µM

Provide value of TGI for this record tested with NCI-H23 lung: CCC(C)(O)c1cn(-c2ccc(Cl)cc2)nn1 (stereo not given)
> 100 µM

Any idea what TGI came out for CC1=NN(c2ccccc2)C(=O)C12[C@H](c1ccccc1)C2(C#N)C#N (stereo not given in full) on NCI-H23 lung?
11 µM

Give the reported TGI for `Cc1ccccc1-n1c(=S)[nH]c2c(sc(=O)n2-c2ccccc2C)c1=O` (system: NCI-H23 lung).
> 100 µM

Test system NCI-H23 lung; read-out TGI; what value for `O=C(O)Cn1c2c(c3c1-c1ccccc1C3=O)C(=O)CCC2` ?
> 100 µM

Kindly state the measured TGI obtained for Cc1cc(=O)[nH]c(NNC(C#N)c2ccccc2O)n1 (stereo not given) with NCI-H23 lung.
> 100 µM

Could you share what TGI was measured for C=C(C(=O)OC)[C@@H]1CC2OC1C(=O)C(C)CCC/C(C)=C/CC[C@@]2(C)O (stereo not given in full) , tested on NCI-H23 lung?
27.9 µM

Recorded TGI for `O=C1C=C(N2CCN(c3ncccn3)CC2)C(=O)c2c(O)ccc(O)c21` with NCI-H23 lung, please?
> 100 µM

What TGI appears in the records for this molecule with NCI-H23 lung? `CCCCCCCC(=O)[O-].CCCCCCCC(=O)[O-].N.N.N.N.[Co+3].[O-][Cl+3]([O-])([O-])[O-]`
> 100 µM
